The values you see were collected from ChEMBL document CHEMBL1156404.

Here's what we have: pIC50 numbers for Cathepsin K (Homo sapiens, UniProt P43235).
Recall that pIC50 is obtained by taking minus log10 of the concentration measured in molar.

>  <molecule>
NCCc1c[nH]c2ccccc12

>  <pIC50>
4.82

$$$$

Q: // query pIC50 value for entry c1ccc2c3c([nH]c2c1)C(Cc1c[nH]cn1)NCC3 (configuration not stated)
A: 4.59
